# System: Hs-578T
# Test Protocol: NCI tumour cell line growth inhibition, 48 h
Activity calls are given as the source filed them. Rule as the data show it: active = GI50 up to about 1.1 µM and inactive = higher.
Readout Label: GI50

> print(dat)
                                   compound  readout.label               result
1              O=C1CCCNn2c(nc3ncccc3c2=O)N1           GI50  > 100 µM (inactive)
2  CCN(CC)CCn1c(=O)c2cccnc2n2c3c(=O)n(C)c(=O)n(C)c3nc12           GI50  > 100 µM (inactive)
3  CC(C)CCCC(C)[C@H]1CC[C@H]2N/C(=N/c3ccccc3)CCC[C@]12C (stereo partly drawn)           GI50   2.26 µM (inactive)

====

# System: EKVX
# Test Protocol: NCI tumour cell line growth inhibition, 48 h
Activity calls are given as the source filed them. Rule as the data show it: active = GI50 up to about 1.1 µM and inactive = higher.
Each item that follows carries a reported GI50.
Readout Label: GI50

> print(dat)
                                   compound  test.target  readout.label               result
1  Cc1cn(C2CC(O)C(CO[Si](C)(C)C(C)(C)C)OC2OC(C)C)c(=O)[nH]c1=O (stereo not given)         EKVX           GI50   42.5 µM (inactive)
2  COC1CC(COCc2ccccc2)CC(OC)O1 (stereo not given)         EKVX           GI50  > 100 µM (inactive)
3                 CC(C)(C)C#COC(=O)c1ccccc1         EKVX           GI50  > 100 µM (inactive)
4  O=C(CSCC(=O)N/N=C\c1ccc(F)cc1F)N/N=C\c1ccc(F)cc1F         EKVX           GI50  > 100 µM (inactive)
5         COc1ccc(CNc2cnc3cc(N)ccc3n2)cc1OC         EKVX           GI50  > 100 µM (inactive)

====

# Tested on: T47D
# Test Protocol: NCI tumour cell line growth inhibition, 48 h
Calls of active or inactive are those of the source. No stated cut-off is given here; in the data, active = GI50 up to about 1.1 µM and inactive = higher. Non-standard residues stand in square brackets, D forms with d. Residues, ends and D or L forms follow the SMILES beside them. *: point of attachment. Ac5c = NC1(C(=O)O)CCCC1; Boc = CC(C)(C)OC(=O)*; tBu = CC(C)(C)*
Outcomes: active, inactive

Compound	Test Target	Class Assignment
O=C(O)c1ccc(C2SCc3nc4ccccc4n32)cc1 (stereo not drawn)	T47D	inactive
CC(OC(C)(C)C)C(NC(=O)C(CCCCNC(=O)OC(C)(C)C)NC(=O)C(Cc1c[nH]c2ccccc12)NC(=O)C(N)Cc1ccccc1)C(=O)NC(Cc1ccccc1)C(=O)NC1(C(=O)O)CCCC1 (stereo not drawn) (H-FWK(Boc)T(tBu)F[Ac5c]-OH; configuration not given here)	T47D	inactive
COc1ccc2c(c1)C1=NCCN(CCN(C)C)c3ccc([N+](=O)[O-])c(c31)N2	T47D	active
Cc1ccc([N+](=O)[O-])c2c(NCCNC(=O)Cn3ccnc3[N+](=O)[O-])ccnc12	T47D	inactive
CCOC(=O)C(=NN(C)c1ncccc1N)C(=O)OCC	T47D	inactive
COc1cc(/C=C2\CC3C4CC[C@H]5C[C@@H](O)CC[C@]5(C)C4CC[C@]3(C)\C2=N\O)cc(OC)c1OC (stereo partly drawn)	T47D	inactive
CCN(CC)/[N+]([O-])=N/OS(=O)(=O)N(C)C	T47D	inactive
O=C1CCC(c2ccccc2)(c2ccccc2)CC1	T47D	inactive

====

# Test system: PC-3
# Test Protocol: NCI tumour cell line growth inhibition, 48 h
Active and inactive are the calls of the source. Cut-off read from the data, not from the text of the source: active = GI50 up to about 1.1 µM and inactive = higher.
Outcomes: active, inactive

> print(dat)
                                    molecule  class.assignment
 1  CC/C=C/C(CC)C/C(C)=C\[C@]1(CC)C[C@H](CC)[C@H](CC(=O)O)OO1 (some centres undefined)            active
 2  Cc1cc(S(=O)(=O)O)c(NC(=O)c2oc3cc(O)ccc3c(=O)c2C)cc1Cl          inactive
 3  C=CCN1C(=O)CS/C1=N\NC(=O)CSc1nc2ccccc2c(=O)n1CC          inactive
 4  CN(C)CCNC(=O)c1cc(NC(=O)c2cc(NC(=O)CC/C=C3/[C@@H]4CC[C@H]3N=N4)cn2C)cn1C          inactive
 5  COc1cc(/C=C/C(=O)CC(=O)/C=C/c2cc(C)c(O)c(OC)c2)cc(C)c1O          inactive
 6  O=c1cnn(C2OC(C(O)CO)C(O)C2O)c(=O)[nH]1 (centres undefined)          inactive
 7  CCOC(=O)Cn1nc2ccc(Nc3nc4ccccc4nc3C(=O)OCC)cc2n1          inactive
 8             Clc1nc(Cl)c(Cc2ccccc2)c(Cl)n1          inactive
 9  C[N+](C)(C)CC(=O)N/N=C(\C(=O)NC1=C(Cl)C(=O)c2ccccc2C1=O)C(C#N)c1nc(-c2ccc([N+](=O)[O-])cc2)cs1 (centres undefined)          inactive
10         CCSC1=CC(=O)c2nc3ccccc3c3ccnc1c23          inactive
11  O=C(C/C(=N/O)C(=O)NC1=C(Cl)C(=O)c2ccccc2C1=O)CC(c1ccccc1)c1c(O)c2ccccc2oc1=O (centres undefined)          inactive
12  CC(=O)OC1CCN(C(=O)c2ccccc2)CC1CC1(c2cc3ccccc3[nH]2)OCCO1 (centres undefined)          inactive
13         Nc1nc(O)c2c(n1)NCN(CCCN1CCOCC1)C2          inactive
14     Cc1nn(-c2ccccn2)c2c1C(SC#N)=C(C=O)CC2          inactive
15    O=C(CCc1ccc(O)c(O)c1)NCCc1cc(O)cc(O)c1          inactive
16  CCOC(=O)NC(Nc1ccc([N+](=O)[O-])cc1)(C(F)(F)F)C(F)(F)F          inactive
17  Cc1cc(C)c2c(O)c(S(=O)(=O)c3ccc(Cl)cc3)c(=O)oc2c1          inactive
18  CC(=O)O[C@H]1C[C@H]2[C@@H]([C@H](OC(C)=O)C[C@@H]3CC4(CC[C@@]32C)OOC2(CCCCC2)OO4)[C@@H]2CC[C@H]([C@H](C)CCC(N)=O)[C@@]12C          inactive
19  CN1C2CCC1C(CO)C(=O)C2 (centres undefined)          inactive

====

# Tested on: HOP-18
# Test Protocol: NCI tumour cell line growth inhibition, 48 h
Calls of active or inactive are those of the source. No stated cut-off is given here; in the data, active = GI50 up to about 1.1 µM and inactive = higher.
Readout Label: GI50

> print(dat)
                                    compound  test.target  readout.label               result
 1      CCOC(=O)C1=C(O)C(=O)c2cc(OC)ccc2C1=O       HOP-18           GI50   4.51 µM (inactive)
 2  CCCOC(=O)C1CCC(=O)N1C(=O)C(C)Cl (stereo not given)       HOP-18           GI50  > 100 µM (inactive)
 3    O=C(O)CNCc1c2ccccc2[n+]([O-])c2ccccc12       HOP-18           GI50   52.7 µM (inactive)
 4  O=C1c2cccc3cc([N+](=O)[O-])cc(c23)C(=O)N1CCCN1CCN(CCCN2C(=O)c3cccc4cc([N+](=O)[O-])cc(c34)C2=O)CC1       HOP-18           GI50   1.77 µM (inactive)
 5  O=C1/C(=C/c2ccc3c(c2)OCO3)CCC1CN1CCOCC1 (stereo not given)       HOP-18           GI50   17.3 µM (inactive)
 6                       Cc1c(O)c(=O)ccn1CCN       HOP-18           GI50  > 100 µM (inactive)
 7    O=C(O)CCSC(=O)Nc1ccc(/N=N/c2ccccc2)cc1       HOP-18           GI50  > 100 µM (inactive)
 8  CC(C)N(C(=O)C12C3C4C1C1C4(C#N)C3C12C(=O)O)C(C)C (stereo not given)       HOP-18           GI50  > 100 µM (inactive)
 9  CC(C)(C)OC(=O)N1N=NC2C3CC(=O)C(O3)C21 (stereo not given)       HOP-18           GI50  > 100 µM (inactive)
10  C[N+](C)(C)CC(=O)N/N=C(\C(=O)NC1=C(Cl)C(=O)c2ccccc2C1=O)C(C#N)c1nc(-c2ccc([N+](=O)[O-])cc2)cs1 (stereo not given)       HOP-18           GI50    6.4 µM (inactive)
